Biological target: Hexose transporter 1 (Plasmodium falciparum)
Test: ST_JUDE_LEISH: Cytotoxicity at 2uM final concentration against transgenic Leishmania Mexicana promastigotes LmPfHT that are glucose transport deficient and complemented with the Plasmodium falciparum hexose transporter. Activity is measured by DNA content using SYBR green in vitro
Format: functional
assayReadout: inhibition (%)
State just the number; it will be interpreted in %.

Consider the compound shown here: COc1cccc(CNCC(C)(C)c2nc(-c3ccc(Cl)c(O)c3)c(-c3ccncc3)[nH]2)c1 What is its recorded inhibition?
-3.17

Reported inhibition, compound CC(C)=CCc1c(-c2ccc(O)cc2O)oc2c3c(cc(O)c2c1=O)OC(C)(C)C=C3 : ____
4.6

Sample O=C(NC1CCC(CCN2CCc3ccc(-c4cnccn4)cc3CC2)CC1)c1cccc(-n2cccn2)c1 (stereo not given) — what was its inhibition?
7.38

Can you share its inhibition? I mean this compound: O=C(Nc1cccc(CN2CCN(Cc3ccc(O)cc3)CC2)c1)c1cccc(C(F)(F)F)c1
6.51

What does the record list as inhibition for CN(C)CCCN1CCN(Cc2ccc(-c3ccc(-c4nc5ccccc5[nH]4)s3)cc2)CC1 ?
8.38

====

Molecular target: Glucose transporter (Leishmania mexicana)
Assay: ST_JUDE_LEISH: Cytotoxicity at 2uM final concentration against transgenic Leishmania Mexicana promastigotes LmGT2 that are glucose transport deficient and complemented with the L. Mexicana glucose transporter 2. Activity is measured by DNA content using SYBR green in vitro
Format: functional
inhibition values by entry
Respond numerically; units are % and should not be typed.

The examples below pair each entry with its known result.
{"smilesStr": "CC(C)C1=NC(=O)c2cc([N+](=O)[O-])ccc2CN1", "assayReadout": "inhibition", "unitSymbol": "%", "measurement": 2.11}
{"smilesStr": "Fc1ccc2[nH]c(-c3ccc(-c4ccc(CN5CCC(CCN6CCCCC6)CC5)cc4)cc3)nc2c1", "assayReadout": "inhibition", "unitSymbol": "%", "measurement": 3.31}
{"smilesStr": "COc1cc(C(=O)NC2CC(C)(C)N(C)C(C)(C)C2)ccc1-c1nc2cc(Cl)c(Cl)cc2[nH]1", "assayReadout": "inhibition", "unitSymbol": "%", "measurement": 3.3}
{"smilesStr": "COc1ccc(N2CCN(CCCCNC(=O)c3ccc(NC(=O)c4ccc(Cl)c(Cl)c4)cc3)CC2)c(OC)c1", "assayReadout": "inhibition", "unitSymbol": "%", "measurement": 1.65}

Turning now to a further record.
For O=C(NCc1cccc(Cl)c1)c1ccc(CNC2CCN(Cc3ccccc3)CC2)cc1 , what is its reported inhibition?
2.18

====

# inhibition listing for each entry below
Biological target: Solute carrier family 2, facilitated glucose transporter member 1 (Homo sapiens) (UniProt P11166)
Sequence (P11166 whole entry): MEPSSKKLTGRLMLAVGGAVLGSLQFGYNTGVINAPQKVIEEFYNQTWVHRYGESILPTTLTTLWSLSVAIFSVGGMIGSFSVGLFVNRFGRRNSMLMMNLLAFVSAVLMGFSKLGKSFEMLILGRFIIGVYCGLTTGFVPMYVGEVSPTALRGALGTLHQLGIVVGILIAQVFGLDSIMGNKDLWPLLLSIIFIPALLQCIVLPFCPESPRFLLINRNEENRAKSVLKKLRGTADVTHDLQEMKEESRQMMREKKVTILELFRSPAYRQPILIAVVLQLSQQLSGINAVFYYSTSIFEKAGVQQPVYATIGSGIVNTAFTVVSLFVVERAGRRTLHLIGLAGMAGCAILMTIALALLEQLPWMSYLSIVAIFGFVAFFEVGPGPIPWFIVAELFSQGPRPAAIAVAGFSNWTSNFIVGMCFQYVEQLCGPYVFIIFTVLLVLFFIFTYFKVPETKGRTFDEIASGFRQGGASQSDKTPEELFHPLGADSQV
Assay: ST_JUDE_LEISH: Cytotoxicity at 2uM final concentration against transgenic Leishmania Mexicana promastigotes LmGLUT1 that are glucose transport deficient and complemented with the human glucose transporter GLUT1. Activity is measured by DNA content using SYBR green in vitro
Assay type: functional
The response must be a number in % with no trailing unit.

Examples with answers:
{"compound": "COc1ccc2ncc(Cl)c(CCN3CCC(NCc4ccc5c(n4)NC(=O)CO5)CC3)c2c1", "unitSymbol": "%", "measurement": 7.95}
{"compound": "Nc1nc(N)c2c(ccc3c2ccn3CCCC(F)(F)F)n1", "unitSymbol": "%", "measurement": 14.2}

Report inhibition for CCC[C@@H]([C@@H](CC1CCCCC1)C(=O)N[C@H](C(=O)Nc1nccs1)C(C)(C)SCCOCCOCC)N(O)C=O please.
6.4

Please give the measured inhibition for this compound: CCOc1ccc(C(C)NC(=O)Cc2ccccc2F)cc1OCC (centres undefined)
3.49

What does the record list as inhibition for CCN(CC)CCN(CCCc1ccc(-c2ccc(C(F)(F)F)cc2)cc1)C(=O)Cn1c(CCc2cccc(F)c2F)nc(=O)c2ccccc21 ?
2.87

Dear colleague, I am looking for the recorded inhibition of the following compound: CCc1ccc(C2CCN(CCCCNC(=O)c3ccc(NC(=O)c4ccc(Cl)cc4)cc3)CC2)cc1
-0.05

// query inhibition value for entry Cc1nc(-c2cccc(Nc3nccc(NCC(O)c4ccccc4C)n3)c2)cs1 (centres undefined)
2.79

Looking for the measured inhibition of Fc1ccc2[nH]c(-c3ccc(-c4ccc(CNCCc5ccncc5)cc4)s3)nc2c1 , can you help?
5.54

Quick one: inhibition for CNC(=O)c1cncc(/C=C/c2ccccc2S(N)(=O)=O)c1 ?
-0.22

====

Biological target: Hexose transporter 1 (Plasmodium falciparum) (UniProt O97467)
Experiment: ST_JUDE_LEISH: Cytotoxicity at 2uM final concentration against transgenic Leishmania Mexicana promastigotes LmPfHT that are glucose transport deficient and complemented with the Plasmodium falciparum hexose transporter. Activity is measured by DNA content using SYBR green in vitro
Type: functional
compounds and their reported inhibition
Answer format: numeric, % implied, no suffix.

Known results for compounds:
{"compound": "Cc1ccc(-c2cnc(N)c3cc(-c4ccnc(N)n4)ccc23)cc1", "inhibition [%]": -2.15}
{"compound": "CCn1cc(C=C2Oc3c(ccc(O)c3CN3CCCCC3C)C2=O)c2ccccc21 (stereo unspecified)", "inhibition [%]": 5.13}
{"compound": "Cc1ccccc1N1CCN(c2ccc(C(=O)NC(C)C)cn2)CC1", "inhibition [%]": -0.59}

Enter reported inhibition observed with Hexose transporter 1 (Plasmodium falciparum) (UniProt O97467) for COc1cc(C(=O)NC2CC(C)(C)NC(C)(C)C2)ccc1-c1cc2cc(Cl)c(Cl)cc2[nH]1
-0.26

Value wanted: inhibition (Hexose transporter 1 (Plasmodium falciparum) (UniProt O97467)) of entry N#Cc1ccc(CCNc2nccc(-c3cccc(CN4CCNCC4)c3)n2)cc1
12.8

Report inhibition for CCN(CC)CCNc1ccnc2c3ccccc3n(C)c12 tested on Hexose transporter 1 (Plasmodium falciparum) (UniProt O97467).
0.22

Report inhibition for COc1ccc(-c2cnc3ccc(NCc4ccc(S(N)(=O)=O)cc4)nn23)cn1 tested on Hexose transporter 1 (Plasmodium falciparum) (UniProt O97467).
4.83

Requested read-out inhibition, target or system Hexose transporter 1 (Plasmodium falciparum) (UniProt O97467), entry CCOc1ccc2ccccc2c1C(=O)Nc1cc(C)nn1-c1nc(C)cc(=O)[nH]1
44.4

Notebook entry, Hexose transporter 1 (Plasmodium falciparum) (UniProt O97467) assay: inhibition of CCCCN(CCCC)C(=O)CC(O)c1cc2c(Cl)cc(Cl)cc2c2cc(C(F)(F)F)ccc12 (stereo unspecified) = ?
1.18

# get_value(readout= inhibition, system= Hexose transporter 1 (Plasmodium falciparum) (UniProt O97467)) for COc1ccc2nc(-c3cccc(C)n3)nc(Nc3ccncc3)c2c1
1.8

Please state recorded inhibition (tested on Hexose transporter 1 (Plasmodium falciparum) (UniProt O97467)) of CC(C)c1ccc(NC(=O)Nc2ccc(Cn3ncc(N4CCCNCC4)c(Cl)c3=O)cc2)cc1
1.29

Value wanted: inhibition (Hexose transporter 1 (Plasmodium falciparum) (UniProt O97467)) of entry CC(C)c1cc2c(ccc3nc(N)nc(N)c32)[nH]1
31

Item Cc1c(Cn2ncc(N3CC(C)NC(C)C3)c(Cl)c2=O)cccc1NC(=O)Nc1ccc(-c2ccccc2)cc1 (stereo unspecified) with Hexose transporter 1 (Plasmodium falciparum) (UniProt O97467) - inhibition?
3.21

Return inhibition measured with Hexose transporter 1 (Plasmodium falciparum) (UniProt O97467) given this compound: CC(C)n1ncc2c(C(=O)N3CCCC4CCCCC43)cc(C3CC3)nc21 (stereo unspecified)
6.45

Request body: readout inhibition, system Hexose transporter 1 (Plasmodium falciparum) (UniProt O97467), query CCOC(=O)c1cnc2c(OC)cc(OC)c(Cl)c2c1Nc1ccccc1 . Return the value.
4.89

Which inhibition is reported with Hexose transporter 1 (Plasmodium falciparum) (UniProt O97467) for this entry: COc1ccc(Cl)cc1NC(=O)Nc1ccc2c(c1)CCN(C1CCC1)CC2 ?
0.44

Please provide the recorded inhibition for CCCCCN1CCCC(CNS(=O)(=O)c2cccc(C(=O)Nc3ccc(C(F)(F)F)cc3)c2)C1 (stereo unspecified) , tested on Hexose transporter 1 (Plasmodium falciparum) (UniProt O97467).
-0.91

State its inhibition on Hexose transporter 1 (Plasmodium falciparum) (UniProt O97467): Cc1ccn2c(N(Cc3ccccc3)C(=O)c3ccc(Cl)c(Cl)c3)c(-c3ccccc3)nc2c1
3.03

Query inhibition on Hexose transporter 1 (Plasmodium falciparum) (UniProt O97467) for COc1ccc(C2C(C(=O)OC3CCCCC3)=C(C)NC3=C2C(=O)CCC3)cc1Br (stereo unspecified)
-0.1

Item CC(CN(C)C)C(=O)Nc1ccc(-c2ccc(-c3nc4ccccc4[nH]3)cc2)cc1 (stereo unspecified) with Hexose transporter 1 (Plasmodium falciparum) (UniProt O97467) - inhibition?
3.01

Notebook entry, Hexose transporter 1 (Plasmodium falciparum) (UniProt O97467) assay: inhibition of CC(C)CCN1CCC(Oc2ccc(NC(=O)c3cccs3)cc2Cl)C1 (stereo unspecified) = ?
11.8
